The reported numbers originate from paper PMC5540273.

tested on: MST1R; conditions: concentration: 1 μM, replicates: in singlicate; n = 1
Readout kind: %Inh

Molecule: COc1cc(Nc2nccc(N3CCC(NC(=O)C(C)c4ccc(Cl)cc4)C3)n2)cc(OC)c1OC (stereo not shown)
Measurement target: MST1R;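 also: KINOMEscan kinase panel screen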
%Inh: 37%

Dear reader, for each entry below, please note its %Inh.
1. COc1ccc(-n2cnc3c(N)ncnc32)cc1
2. Nc1n[nH]c2ncc(-c3ccccc3)cc12
3. COc1cc2nccc(Nc3ccc(OCc4ccc(NC(C)=O)cc4)cc3)c2cc1OC.Cl
4. Cn1c(=O)c(F)c(Nc2ccc(I)cc2F)c2c(=O)n(OC[C@H](O)CO)cnc21
5. CCC(=O)c1c(-c2ccccc2)c2cc(Cl)ccc2c(=O)n1Cc1cc(S(C)(=O)=O)n(CC(N)=O)n1

*A*
1. 0%
2. 41%
3. 12%
4. 0%
5. 0%

// returns %Inh for Nc1nc(N)c2nc(-c3ccccc3)[nH]c2n1 with MST1R; value = 0%
